assay: Moisture absorption test (hygroscopic properties) of test carriers; assay type: physicochemical; conditions: Table 2; 25° C., Humidity 75%; 72 Hours
Peptide text beside a SMILES is read from it.
MET means recorded % Moisture Absorption is 0.1% or above; NOT MET means it is below 0.1%.

[[record]]
molecule = "OC[C@@H](O)[C@H](O)[C@@H](O)CO"
label = "MET"

[[record]]
molecule = "OC[C@@H](O)[C@@H](O)CO"
label = "NOT MET"

[[record]]
molecule = "OC[C@@H](O)[C@@H](O[C@H]1O[C@H](CO)[C@@H](O)[C@H](O)[C@H]1O)[C@H](O)[C@@H](O)CO"
label = "MET"

[[record]]
molecule = "COC(=O)[C@H](Cc1ccccc1)NC(=O)[C@@H](N)CC(=O)O [Aspartame] (H-Asp-Phe-OMe)"
label = "MET"

[[record]]
molecule = "OC[C@@H](O)[C@@H](O)[C@H](O)[C@H](O)CO"
label = "NOT MET"

[[record]]
molecule = "OC[C@H]1O[C@@H](O[C@H]2[C@H](O)[C@@H](O)C(O)O[C@@H]2CO)[C@H](O)[C@@H](O)[C@H]1O (stereo partly drawn) [Lactose 325M, Lactose]"
label = "NOT MET"

